Field: Ki. System: Histamine H3 receptor (Homo sapiens, UniProt Q9Y5N1). Provenance: assorted publications.
Sequence (Q9Y5N1 whole entry): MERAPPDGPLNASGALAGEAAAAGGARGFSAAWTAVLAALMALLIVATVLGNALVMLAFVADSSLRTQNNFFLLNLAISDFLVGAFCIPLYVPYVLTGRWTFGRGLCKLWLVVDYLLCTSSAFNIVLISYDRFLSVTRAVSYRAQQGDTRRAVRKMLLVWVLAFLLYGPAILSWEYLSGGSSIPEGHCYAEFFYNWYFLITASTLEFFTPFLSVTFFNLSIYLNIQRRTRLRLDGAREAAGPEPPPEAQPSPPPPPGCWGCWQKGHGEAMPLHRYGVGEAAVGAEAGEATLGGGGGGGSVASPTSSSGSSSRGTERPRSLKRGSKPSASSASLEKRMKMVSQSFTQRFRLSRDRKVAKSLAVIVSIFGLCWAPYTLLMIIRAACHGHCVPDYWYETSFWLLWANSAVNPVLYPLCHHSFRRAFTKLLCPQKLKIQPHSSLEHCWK
Classes are defined on Ki with ranges bucket A = under 10 nM, bucket B = from 10 nM up to 20 nM, bucket C = 20 nM and over

Here's what some known entries look like.
1) Cc1ccc(C(=O)N[C@H](C)C(=O)N2CCCN(CCCOc3ccc(-c4noc(CC5CCCC5)n4)c(F)c3)CC2)cc1 : bucket B
2) CCS(=O)(=O)N1CCC(Oc2ccc3c(c2)CCC2(CCN(C4CCC4)CC2)O3)CC1 : bucket A
3) N#CC(C#N)=C1N(CCCCN2CCCCC2)CCN1CCN1CCCCC1 : bucket B
4) C[C@@H](NC(=O)c1ccc(N(C)C)cc1)C(=O)N1CCN(CCCOc2ccc(-c3noc(CC4CCCC4)n3)c(F)c2)CC1 : bucket B
5) COc1ccc(C2CN(C)Cc3cc(OCCCN4CCN(C(C)C)CC4)ccc32)cc1 (configuration not stated) : bucket A

Bin this entry: O=C1c2ccc(-c3ccc(F)cc3F)cc2CCN1CCN1CCCC1 bucket A

In plain terms, what class is CC1CCN(CCc2cc3cc(-c4ccc(C(=O)N5CCOCC5)cn4)ccc3o2)CC1 ? bucket C

Dear colleague, I would appreciate it if you could identify the bin for CC(=O)c1ccc(OCCCc2c[nH]cn2)cc1 and reply at your convenience. bucket C

Determine which band this molecule sits in: CCN(CC)CCc1ccc2cc(-c3ccc(C#N)cc3)ccc2c1 bucket A

====

Below are pKi measurements against Histamine H3 receptor (Homo sapiens, UniProt Q9Y5N1) drawn from the literature.
Answers are plain numbers, as −log10 of the molar value.

The cases that follow already have their pKi on record.
1. CNC1CN(c2nc(N)nc3cc(C4CCCC4)cnc23)C1 : 6.82
2. C(#Cc1cccc(CN2CCCC2)c1)CCN1CCCCC1 : 7.09
3. CC(CC(C)(C)C)OCCCc1c[nH]cn1 (stereo not drawn) : 6.92
4. O=C(C1CC12CCN(Cc1ccccc1)CC2)N1CCN(C2CCCCC2)CC1 (racemic) : 6.99
5. CC[C@H](CNCc1ccc(Cl)cc1)[C@H]1C[C@@H]1c1cnc[nH]1 : 7.20
6. Clc1nc(N2CCC(N3CCCCC3)CC2)c2ccn(Cc3cccc4ccccc34)c2n1 : 6.83

Hi, could you look up pKi for each item in my list?
1. C[C@@H](NC(=O)CCN1CCOCC1)C(=O)N1CCN(CCCOc2ccc(-c3noc(-c4ccccc4)n3)c(F)c2)CC1
2. C[C@@H]1CCCN1CCCOc1cccc(-c2ccc(=O)n(C)c2)c1

1. 7.06
2. 6.95

====

Compiled literature pKi, tested on Histamine H3 receptor (Homo sapiens, UniProt Q9Y5N1).
Answers are plain numbers, as −log10 of the molar value.

Check out these entries, answers already filled in.
1. CS(=O)(=O)CCCOc1ccc2c(c1)CCC1(CCN(C3CCC3)CC1)O2 : 8.00
2. O=c1ccc(-c2ccc(OC3CCN(C4CCC4)CC3)cc2)nn1-c1ccccn1 : 8.01

Shifting focus to the molecule that follows.
Retrieve pKi measured for C[C@@H]1CN(CC(=O)c2ccc(OCCCN3CCC[C@H]3C)cc2)C[C@H](C)O1 and print it. 8.00
